Values compiled from patent US20230111363A1.

# ASSAY SYSTEM: human serum polyclonal antibodies
# RUN DESCRIPTION: cross-interaction chromatography (CIC), column with human serum polyclonal IgG
OBSERVABLE: IgG column RT (min)
Quick reminder: number only, in min, skip the unit.

Lab book: IgG column RT of anti-human MCT1 antibody Ab9 (antibody, human IgG1, kappa, V domains shown) VH: QVQLVQSGAEVKKPGASVKVSCTVSGRSLTNYHIQWVRQAPGQGLEWMGFIRSSGNTEYNSEFKSRVTMTRDTSTSTVYMELSSLRSEDTAVYYCARNRWYHGTYYSPGYYVMDAWGQGTLVTVSS VL: EIVLTQSPGTLSLSPGERATLSCKGSQNIENYLAWYQQKPGQAPRLLIYNRHNLQTGIPDRFSGSGSGTDFTLTISRLEPEDFAVYYCYQYSDGYTFGGGTKVEIKR noted as 5.28

Recorded result, anti-human MCT1 antibody Ab18 (antibody, human IgG1, kappa, V domains shown) VH: QVQLVQSGAEVKKPGASVKVSCTVSGRSLTNYHLGWVRQAPGQGLEWMGFIRSSGNTEYNSEFKSRVTMTRDTSTSTVYMELSSLRSEDTAVYYCARNRWYHGTYYSPGYYVMDAWGQGTLVTVSS VL: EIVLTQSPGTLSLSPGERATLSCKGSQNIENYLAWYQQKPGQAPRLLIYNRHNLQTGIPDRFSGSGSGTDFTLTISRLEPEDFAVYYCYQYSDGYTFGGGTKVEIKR , IgG column RT: 5.35
